Reported Ki, Cathepsin S (Homo sapiens).
Residues, ends and D or L forms follow the SMILES beside them. *: point of attachment. Cbz = O=C(OCc1ccccc1)*
Numbers only, in nM.

// below: answered compounds
> print(dat)
                                   compound  endpoint.name   val
1  CC(C)C[C@H](NC(=O)c1cccc2ccccc12)C(=O)N[C@H]1CCCN(S(=O)(=O)c2ccccn2)CC1=O             Ki   5.7
2  O=C[C@H](Cc1ccc(O)cc1)NC(=O)[C@H](Cc1ccccc1)NC(=O)OCc1ccccc1 (Cbz-Phe-Tyr-aldehyde)             Ki  0.26

Could you now look at the following compound, please?
Asked: Answer with the recorded Ki of `CC(C)C[C@H](NC(=O)c1cccc2cccnc12)C(=O)N[C@H]1CCCN(S(=O)(=O)c2ccccn2)CC1=O` only.
Given back: 41

###

TARGET_OR_SYSTEM: Procathepsin L (Homo sapiens, UniProt P07711)
Sequence (P07711 whole entry): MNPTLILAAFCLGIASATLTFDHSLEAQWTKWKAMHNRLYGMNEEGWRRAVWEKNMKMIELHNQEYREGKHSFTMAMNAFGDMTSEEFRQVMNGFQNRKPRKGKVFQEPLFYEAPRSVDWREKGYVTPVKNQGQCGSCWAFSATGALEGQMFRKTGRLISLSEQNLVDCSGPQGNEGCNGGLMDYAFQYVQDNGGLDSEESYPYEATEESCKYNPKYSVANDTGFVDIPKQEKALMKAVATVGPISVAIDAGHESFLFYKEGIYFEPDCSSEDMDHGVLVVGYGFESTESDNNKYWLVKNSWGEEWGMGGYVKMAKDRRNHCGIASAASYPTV
Residues, ends and D or L forms follow the SMILES beside them. *: point of attachment. Cbz = O=C(OCc1ccccc1)*
ENDPOINT_NAME: pKi
Give bare numbers, as −log10 of the molar value.

> print(dat)
                                   compound                          target.or.system  endpoint.name   val
1  O=C(N[C@@H](Cc1ccc2ccccc2c1)C(=O)N[C@H]1CCCN(S(=O)(=O)c2ccccn2)CC1=O)c1cccc2ccccc12  Procathepsin L (Homo sapiens, UniProt P07711)            pKi  9.37
2  O=C(N[C@@H](Cc1ccccc1)C(=O)N[C@H]1CCCN(S(=O)(=O)c2ccccn2)CC1=O)c1cc2ccccc2o1  Procathepsin L (Homo sapiens, UniProt P07711)            pKi  8.77

Asked: Answer with the recorded pKi of O=C[C@H](Cc1ccc(O)cc1)NC(=O)[C@H](Cc1ccccc1)NC(=O)OCc1ccccc1 (Cbz-Phe-Tyr-aldehyde) only.
Given back: 9.33

Origin of the recorded values: ChEMBL document CHEMBL1140373
